system: TFEB; experiment: TFEB nuclear translocation assay, HeLa wt cells; format: cell-based; details: Homo sapiens, HeLa, 2 h, 2 hrs compound treatment, Table 1 does not say HeLa wt or TRPML1 KO
Answer each item with its documented AC50.

Q: Provide AC50 value for the following molecule: CC(c1cccc(C#N)c1N1CCC(CN2C[C@@H](C)O[C@@H](C)C2)CC1)S(=O)(=O)c1ccc(S(=O)(=O)N(C)C)cc1 (stereo partly shown) [Compound A-842]
A: ≤ 2 µM

Lab note: each molecule below needs its AC50 filled in.
1. CN(C)S(=O)(=O)c1ccc(S(=O)(=O)Nc2cccc(F)c2N2CCC(N3CCC34CCCOC4)CC2)cc1 (stereo not shown) [Compound A-917]
2. CC(c1cccc(F)c1N1CCCCC1)S(=O)(=O)c1ccc2c(c1)CCS2(=O)=O (stereo not shown) [Compound A-920]

A:
1: 2.01 to 8 µM; 2: ≥ 10 µM

====

system: TFEB; assay: TFEB nuclear translocation assay, HeLa wt cells; assay type: cell-based; details: Homo sapiens, HeLa, 2 h, 2 hrs compound treatment, Table 1 does not say HeLa wt or TRPML1 KO
quantity: AC50

Q: Provide AC50 value for the following compound: `CN(C)S(=O)(=O)c1ccc(S(=O)(=O)Nc2ccccc2C2CCN(c3ccc(Cl)cc3F)CC2)cc1`
A: 2010 to 8000 nM

Q: Provide AC50 value for the following compound: CC(c1cccc(F)c1N1CCC(CN2C[C@@H](C)O[C@H](C)C2)CC1)S(=O)(=O)c1ccc(S(=O)(=O)N(C)C)cc1 (stereo partly shown) [Compound A-859]
A: ≤ 2000 nM

Q: Provide AC50 value for the following compound: `O=S(=O)(Nc1ccccc1N1CCC(c2ccc(Cl)cc2F)CC1)c1c(F)cccc1F`
A: ≥ 10000 nM

Lab note: each compound below needs its AC50 filled in.
1. CC(C)c1ccc(S(=O)(=O)Nc2ccccc2N2CCN(C(=O)C(C)(C)C)CC2)cc1
2. CN1CC2(CCN(c3c(NS(=O)(=O)c4ccc(S(=O)(=O)N(C)C)cc4)ccc4c3cnn4C)CC2)c2ccc(F)cc21
3. C[C@@H]1COC[C@H](C)N1CC1CCN(c2c(F)cccc2NS(=O)(=O)c2ccc(S(=O)(=O)N(C)C)cc2)CC1
4. CNS(=O)(=O)c1ccc(S(=O)(=O)Nc2ccccc2N2CCC(c3ccc(Cl)cc3F)CC2)cc1

A:
["2010 to 8000 nM", "≤ 2000 nM", "≤ 2000 nM", "2010 to 8000 nM"]

====

Answer each item with its documented AC50.
test system: TFEB; assay: TFEB nuclear translocation assay, HeLa wt cells; format: cell-based; details: Homo sapiens, HeLa, 2 h, 2 hrs compound treatment, Table 1 does not say HeLa wt or TRPML1 KO

Use the examples below as a reference point.
Q: Retrieve AC50 on TFEB; query `CC(=O)Nc1cccc(NS(=O)(=O)c2ccc(S(=O)(=O)N(C)C)cc2)c1N1CCCCC1`
A: ≥ 10 µM

Q: Retrieve AC50 on TFEB; query `Cc1ccc(N2CCOCC2)c(NS(=O)(=O)c2ccc(S(=O)(=O)N(C)C)cc2)c1`
A: ≤ 2 µM

Q: Retrieve AC50 on TFEB; query `COCC1(C)CCN(c2ccccc2NS(=O)(=O)c2ccc(C(C)(C)OC)cc2)CC1`
A: 2.01 to 8 µM

Q: Retrieve AC50 on TFEB; query `Cc1ccc(S(=O)(=O)Nc2ccccc2N2CCC(c3ccccn3)CC2)cc1`
A: ≤ 2 µM

Q: Retrieve AC50 on TFEB; query `CN(C)S(=O)(=O)c1ccc(S(=O)(=O)Nc2ccccc2N2CCC3(CCCO3)CC2)cc1`
A: ≤ 2 µM

Lab note: each compound below needs its AC50 filled in.
1. COCC1(F)CCN(c2ccccc2NS(=O)(=O)c2ccc(S(=O)(=O)N(C)C)cc2)CC1
2. CN(C)S(=O)(=O)c1ccc(S(=O)(=O)Nc2ccccc2N2CCC(C(C)(F)F)CC2)cc1
3. CN(C)S(=O)(=O)c1ccc(S(=O)(=O)Nc2ccccc2N2CCN(C(=O)C3CCCC3(F)F)CC2)cc1 (stereo not drawn)
4. CP(C)(=O)c1ccc(S(=O)(=O)Nc2cccc(Cl)c2N2CCOCC2)cc1
5. CCOC(=O)CC1(F)CCN(c2ccccc2NS(=O)(=O)c2ccc(S(=O)(=O)N(C)C)cc2)CC1
6. C[C@@H]1CN(CC2CCN(c3c(F)cccc3NS(=O)(=O)c3ccc(S(=O)(=O)C(F)F)cc3)CC2)C[C@H](C)O1
7. CC(C)(C)S(=O)(=O)c1ccc(S(=O)(=O)Nc2cc(Cl)ccc2N2CCOCC2)cc1

A:
1. ≤ 2 µM
2. ≤ 2 µM
3. 2.01 to 8 µM
4. ≥ 10 µM
5. ≤ 2 µM
6. ≤ 2 µM
7. ≥ 10 µM

Lab note: each compound below needs its AC50 filled in.
1. C[C@H]1COC[C@H](C)N1CC1CCN(c2c(F)cccc2NS(=O)(=O)c2ccc(S(C)(=O)=O)cc2)CC1 (relative stereo)
2. CN(C)S(=O)(=O)c1ccc(S(=O)(=O)Nc2ccccc2N2[C@@H]3CC[C@H]2CN(c2ccc(Cl)cc2F)C3)cc1
3. CC(C)S(=N)(=O)c1ccc(S(=O)(=O)[C@H](C)c2cccc(F)c2N2CCCCC2)cc1 (stereo partly drawn) [Compound A-922]

A:
1: ≤ 2 µM; 2: ≤ 2 µM; 3: ≥ 10 µM

====

tested on: TFEB; test: TFEB nuclear translocation assay, HeLa wt cells; assay type: cell-based; settings: Homo sapiens, HeLa, 2 h, 2 hrs compound treatment, Table 1 does not say HeLa wt or TRPML1 KO
Answer each item with its documented AC50.

Use the examples below as a reference point.
Q: Retrieve AC50 on TFEB; query `CN(C)S(=O)(=O)c1ccc(S(=O)(=O)Nc2cccc(Cl)c2N2CCCCC2)cc1`
A: ≤ 2 µM

Q: Retrieve AC50 on TFEB; query `COCCOCCOCCN(C)S(=O)(=O)c1ccc(S(=O)(=O)Nc2ccccc2N2CCC(c3ccc(Cl)cc3F)CC2)cc1`
A: 2.01 to 8 µM

Q: Retrieve AC50 on TFEB; query `COc1ccc(S(=O)(=O)Nc2ncccc2N2CCN(c3ncc(Cl)cc3F)CC2)cc1`
A: ≥ 10 µM

Q: Retrieve AC50 on TFEB; query `O=S(=O)(Cc1ccon1)Nc1cccc(Cl)c1N1CCOCC1`
A: ≥ 10 µM

Q: Retrieve AC50 on TFEB; query `COc1ccc(S(=O)(=O)Nc2ccccc2N2CC(N(C)c3ccc(F)cc3F)C2)cc1`
A: ≥ 10 µM

Lab note: each compound below needs its AC50 filled in.
1. CN(C)S(=N)(=O)c1ccc(S(=O)(=O)Nc2ccccc2N2CCC(O)(c3ccc(Cl)cc3F)CC2)cc1 (stereo not shown)
2. Cc1nn(C)c(C2=CCN(c3ccc(Cl)cc3F)CC2)c1NS(=O)(=O)c1ccc(S(=O)(=O)N(C)C)cc1

A:
1. ≤ 2 µM
2. ≥ 10 µM

====

system: TFEB; assay: TFEB nuclear translocation assay, HeLa wt cells; type: cell-based; conditions: Homo sapiens, HeLa, 2 h, 2 hrs compound treatment, Table 1 does not say HeLa wt or TRPML1 KO
Answer each item with its documented AC50.

Q: Provide AC50 value for the following compound: `Cc1ccc(S(=O)(=O)Nc2ccccc2N2CC=C(c3ccc(Cl)cn3)CC2)cc1`
A: 2.01 to 8 µM

Lab note: each compound below needs its AC50 filled in.
1. Cc1ccc(S(=O)(=O)Nc2ccccc2N2[C@@H]3CC[C@H]2C[C@@H](c2ccccc2F)C3)cc1
2. Cc1ccc(S(=O)(=O)Nc2ccccc2-n2ccc(-c3ccc(Cl)cc3F)c2)cc1
3. CC(C1CCN(c2c(F)cccc2NS(=O)(=O)c2ccc(S(=N)(=O)N(C)C)cc2)CC1)N1C[C@@H](C)O[C@@H](C)C1 (some centres unmarked) [Compound A-872A]
4. COCC1(C)CCN(c2c(NS(=O)(=O)c3ccc(S(=O)(=O)N(C)C)cc3)ccc3ccnn23)CC1
5. C[C@@H]1COC[C@H](C)N1C[C@H]1CCN(c2c(F)cccc2NS(=O)(=O)c2ccc(S(=O)(=O)N(C)C)cc2)C1
6. CC(C)(C)C(=O)N1CCN(c2ccccc2NS(=O)(=O)c2ccc(OC3CCCC3)cc2)CC1
7. COCC1(C(F)(F)F)CCN(c2ccccc2NS(=O)(=O)c2ccc(S(=O)(=O)N(C)C)cc2)CC1
8. COCCOCCOCCOc1ccc(S(=O)(=O)Nc2ccccc2N2CCC(c3ccc(Cl)cc3F)CC2)cc1

A:
1: ≤ 2 µM; 2: ≥ 10 µM; 3: ≤ 2 µM; 4: 2.01 to 8 µM; 5: ≤ 2 µM; 6: 8.01 to 9.99 µM; 7: ≤ 2 µM; 8: ≤ 2 µM

Lab note: each compound below needs its AC50 filled in.
1. CN(C)C(c1ccc(S(=O)(=O)Nc2ccccc2N2CCC(c3ccc(Cl)cc3F)CC2)cc1)C(F)(F)F (centres unmarked)
2. CCN1CCN(c2c(Cl)cccc2NS(=O)(=O)c2ccc3c(c2)CCC3)C(=O)C1
3. CS(=N)(=O)c1ccc(S(=O)(=O)Nc2ccccc2N2CCC(c3c(F)cccc3F)CC2)cc1 (centres unmarked)
4. CN(C)S(=O)(=O)c1ccc(S(=O)(=O)Nc2ccccc2N2CCCC3(COC3)C2)cc1
5. CN(C)S(=O)(=O)c1ccc(S(=O)(=O)N2CCC(N3CCC(c4ccc(Cl)cc4F)CC3)C2=O)cc1 (centres unmarked)
6. C[C@@H]1CN(CC2CCN(c3c(F)cccc3[C@@H](C)S(=O)(=O)c3ccc(S(=O)(=O)N(C)C)cc3)CC2)C[C@H](C)O1

A:
1. ≤ 2 µM
2. ≥ 10 µM
3. 2.01 to 8 µM
4. 2.01 to 8 µM
5. ≥ 10 µM
6. ≤ 2 µM

Lab note: each compound below needs its AC50 filled in.
1. CN(C)S(=O)(=O)c1ccc(S(=O)(=O)Nc2ccccc2N2CCN(C3CCCCC3(F)F)CC2)cc1 (centres unmarked)
2. CC1(C)CC2(CCN(c3ccccc3NS(=O)(=O)c3ccc4c(c3)COC4)CC2)CO1

A:
1: ≤ 2 µM; 2: 8.01 to 9.99 µM

Lab note: each compound below needs its AC50 filled in.
1. COc1ccc(S(=O)(=O)Nc2ccccc2N2CC(Cc3ccc(F)cc3F)C2)cc1
2. CC1(C)CC2(CCN(c3ccccc3NS(=O)(=O)c3ccc(S(C)(=O)=O)cc3)CC2)CO1
3. CC(c1ccccc1N1CCC2(CC1)COC(C)(C)C2)S(=O)(=O)Cc1ccccc1 (centres unmarked)
4. CN(C)S(=N)(=O)c1ccc(S(=O)(=O)Nc2ccc(F)cc2N2CCC(c3c(F)cccc3F)CC2)cc1 (centres unmarked)
5. CS(=O)(=O)c1ccc(S(=O)(=O)Nc2ccccc2N2CCC3(CC2)COCc2ccccc23)cc1

A:
1: ≥ 10 µM; 2: 2.01 to 8 µM; 3: ≥ 10 µM; 4: ≤ 2 µM; 5: ≤ 2 µM

Lab note: each compound below needs its AC50 filled in.
1. CC1(C)CC2(CCN(c3ccccc3NS(=O)(=O)c3ccc(C(F)F)cc3)CC2)CO1
2. Cc1ccc(S(=O)(=O)n2cc3c(N4CCN(C5CCCCC5)CC4)cccc3n2)cc1
3. CN(C)S(=O)(=O)c1ccc(S(=O)(=O)Nc2ccccc2N2CCC(COC(C)(F)F)CC2)cc1

A:
≤ 2 µM
2.01 to 8 µM
≤ 2 µM

Lab note: each compound below needs its AC50 filled in.
1. CN(C)S(=O)(=O)c1ccc(S(=O)(=O)Nc2ccccc2N2CCC(C(C)(C)O)CC2)cc1
2. CN(C)S(=O)(=O)c1ccc(S(=O)(=O)Nc2cccc(F)c2N2CCC(C)(N)CC2)cc1
3. CN(C)S(=O)(=O)c1ccc(S(=O)(=O)Nc2ccccc2N2CCC(c3cnn(C)c3)CC2)cc1
4. CN(C)S(=O)(=O)c1ccc(S(=O)(=O)Nc2ccccc2N2CCC(C(=O)C(C)(C)C)CC2)cc1

A:
8.01 to 9.99 µM
≥ 10 µM
2.01 to 8 µM
≤ 2 µM
